Target: NAD-dependent protein deacylase sirtuin-6 (Homo sapiens) (UniProt Q8N6T7)
Sequence (Q8N6T7 whole entry, the tested form may be a part): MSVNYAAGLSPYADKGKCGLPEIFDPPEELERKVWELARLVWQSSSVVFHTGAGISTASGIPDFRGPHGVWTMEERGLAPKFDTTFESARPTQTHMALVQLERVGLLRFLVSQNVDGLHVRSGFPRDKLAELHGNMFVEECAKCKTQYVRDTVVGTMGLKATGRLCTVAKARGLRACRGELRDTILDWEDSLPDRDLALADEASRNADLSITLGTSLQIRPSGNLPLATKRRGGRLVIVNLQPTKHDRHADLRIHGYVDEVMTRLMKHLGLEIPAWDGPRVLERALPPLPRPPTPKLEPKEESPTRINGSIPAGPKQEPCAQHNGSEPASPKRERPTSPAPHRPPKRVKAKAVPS
Assay: Inhibition of recombinant human N-terminal polyhis-tagged SIRT6 (1 to 355 residues) defatty-acylase activity expressed in Escherichia coli at 2 uM using SFP3 as substrate measured at 5 mins interval for 60 mins in presence of NAD+ by fluorescence assay relative to control
Residues, ends and D or L forms follow the SMILES beside them. *: point of attachment. Phenylacetyl(4-E-phenylazo) = O=C(Cc1ccc(/N=N/c2ccccc2)cc1)*; X5 = CCN(CC)c1ccc(/N=N/c2ccc(CC(=O)*)cc2)cc1; X2 = CN(C)c1ccc(/N=N/c2ccc(C(=O)*)cc2)cc1
Entries and their inhibition values follow.
Give the number; % is assumed, so skip it.

See these solved cases before continuing.
Compound	Target	Uom	inhibition
CC[C@H](C)[C@H](NC(=O)[C@@H](NC(=O)[C@H](CCCCNC(=O)Cc1ccc(/N=N/c2ccccc2)cc1)NC(=O)[C@H](CC(=O)O)NC(=O)[C@H](CO)NC(C)=O)[C@@H](C)O)C(N)=O (Ac-SDK(Phenylacetyl(4-E-phenylazo))TI-NH2)	NAD-dependent protein deacylase sirtuin-6 (Homo sapiens) (UniProt Q8N6T7)	%	2.6
CC[C@H](C)[C@H](NC(=O)[C@@H](NC(=O)[C@H](CCCCNC(=O)c1ccc(/N=N/c2ccc(N(C)C)cc2)cc1)NC(=O)[C@H](CC(=O)O)NC(=O)[C@H](CO)NC(C)=O)[C@@H](C)O)C(N)=O (Ac-SDK(X2)TI-NH2)	NAD-dependent protein deacylase sirtuin-6 (Homo sapiens) (UniProt Q8N6T7)	%	11
Cc1cc(C)nc(SCC(=O)Nc2ncc(Cc3cccc4ccccc34)s2)n1	NAD-dependent protein deacylase sirtuin-6 (Homo sapiens) (UniProt Q8N6T7)	%	-2.2
CC[C@H](C)[C@H](NC(=O)[C@H](CCCNC(=N)N)NC(C)=O)C(=O)N[C@@H](CCCCNC(=O)Cc1ccc(/N=N/c2ccc(N(CC)CC)cc2)cc1)C(=O)N[C@@H](CCCNC(=N)N)C(=O)N[C@@H](Cc1ccc(O)cc1)C(N)=O (Ac-RIK(X5)RY-NH2)	NAD-dependent protein deacylase sirtuin-6 (Homo sapiens) (UniProt Q8N6T7)	%	28

Lookup: Param item = `CC[C@H](C)[C@H](NC(C)=O)C(=O)N[C@@H](CCCCNC(=O)Cc1ccc(/N=N/c2ccccc2)cc1)C(=O)N[C@@H](CCCNC(=N)N)C(N)=O` ; retrieve measured inhibition.
Found: 28

Lookup: Param item = CC[C@H](C)[C@H](NC(=O)[C@H](CCCNC(=N)N)NC(C)=O)C(=O)N[C@@H](CCCCNC(=O)Cc1ccc(/N=N/c2ccccc2)cc1)C(=O)N[C@@H](CCCNC(=N)N)C(=O)N[C@@H](Cc1ccc(O)cc1)C(N)=O (Ac-RIK(Phenylacetyl(4-E-phenylazo))RY-NH2) ; retrieve measured inhibition.
Found: 32

Lookup: Param item = `C[C@H](NC(=O)[C@H](CCCCNC(=O)Cc1ccc(/N=N/c2ccc(O)cc2)cc1)NC(=O)OCc1ccccc1)C(N)=O` ; retrieve measured inhibition.
Found: 3.8

FYI, the data here is from ChEMBL document CHEMBL4304758.
